B1: PSD2 (parent)
chain: PLMGETQERERVLTHFSRRYCQCN

- Variants of: B1
- measurement.protocol: protein stability index of a GFP-peptide fusion (GPS, HEK-293T) (PSI 1-6); higher = more stable;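 note: lentivirally expressed fusions sorted by FACS into six bins by GFP to DsRed ratio, PSI derived from sequencing read proportions per bin multiplied by bin number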
- experimental.conditions: c terminus: a fixed tail appended
Would you mind telling me the reported protein stability index of each entry?
Form: value (number only, do not type unit).

Indicate the recorded protein stability index value for this variant: P1D
1.82

Indicate the recorded protein stability index value for this variant: L2S
3.19

Indicate the recorded protein stability index value for this variant: S17D
3.37

Indicate the recorded protein stability index value for this variant: H15Y
2.44

Indicate the recorded protein stability index value for this variant: T6G
2.84

Indicate the recorded protein stability index value for this variant: R11A
3.42

Indicate the recorded protein stability index value for this variant: P1E
2.79

Indicate the recorded protein stability index value for this variant: E10Q
2.33

Indicate the recorded protein stability index value for this variant: T14P
2.88

Indicate the recorded protein stability index value for this variant: S17W
1.52

Indicate the recorded protein stability index value for this variant: F16H
4.05
